Entries annotated with measured MIC
- Tested on: Streptococcus pyogenes
- Assay Details: Minimum inhibitory concentration was evaluated in vitro against Streptococcus pyogenes C 203
- Type: functional
The response must be a number in µg/mL with no trailing unit.

Retrieve MIC measured for CC(N)C1CCN(c2c(F)cc3c(=O)c(C(=O)O)cn(C4CC4)c3c2C(F)(F)F)C1 (racemic) and print it. 0.006

Quote MIC reported for CCN[C@H](C)[C@H]1CCN(c2cc3c(cc2F)c(=O)c(C(=O)O)cn3C2CC2)C1 (mixture of isomers; form 2) please. 0.05

Return reported MIC. Input molecule: C[C@H](N)[C@H]1CCN(c2c(F)c(N)c3c(=O)c(C(=O)O)cn(C4CC4)c3c2F)C1 (stereo in doubt; 32F-S,S) 0.05

Determine its reported MIC: CC(N)C1CCN(c2c(F)cc3c(=O)c(C(=O)O)cn(C4CC4)c3c2C(F)(F)F)C1 (stereo in doubt; 36F-R,R) 0.1
